Measured values drawn from PubChem BioAssay AID2165 for this set.

target: UniProtKB O60674; assay: JAK2V617F kinase, IRF1 reporter and Ba/F3 cytotoxicity panel, late-stage follow-up, HEL and Ba/F3 cells (AID 2165); details: Ba/F3, irf1 reporter
Sequence (O60674 whole entry, looked up, change not shown): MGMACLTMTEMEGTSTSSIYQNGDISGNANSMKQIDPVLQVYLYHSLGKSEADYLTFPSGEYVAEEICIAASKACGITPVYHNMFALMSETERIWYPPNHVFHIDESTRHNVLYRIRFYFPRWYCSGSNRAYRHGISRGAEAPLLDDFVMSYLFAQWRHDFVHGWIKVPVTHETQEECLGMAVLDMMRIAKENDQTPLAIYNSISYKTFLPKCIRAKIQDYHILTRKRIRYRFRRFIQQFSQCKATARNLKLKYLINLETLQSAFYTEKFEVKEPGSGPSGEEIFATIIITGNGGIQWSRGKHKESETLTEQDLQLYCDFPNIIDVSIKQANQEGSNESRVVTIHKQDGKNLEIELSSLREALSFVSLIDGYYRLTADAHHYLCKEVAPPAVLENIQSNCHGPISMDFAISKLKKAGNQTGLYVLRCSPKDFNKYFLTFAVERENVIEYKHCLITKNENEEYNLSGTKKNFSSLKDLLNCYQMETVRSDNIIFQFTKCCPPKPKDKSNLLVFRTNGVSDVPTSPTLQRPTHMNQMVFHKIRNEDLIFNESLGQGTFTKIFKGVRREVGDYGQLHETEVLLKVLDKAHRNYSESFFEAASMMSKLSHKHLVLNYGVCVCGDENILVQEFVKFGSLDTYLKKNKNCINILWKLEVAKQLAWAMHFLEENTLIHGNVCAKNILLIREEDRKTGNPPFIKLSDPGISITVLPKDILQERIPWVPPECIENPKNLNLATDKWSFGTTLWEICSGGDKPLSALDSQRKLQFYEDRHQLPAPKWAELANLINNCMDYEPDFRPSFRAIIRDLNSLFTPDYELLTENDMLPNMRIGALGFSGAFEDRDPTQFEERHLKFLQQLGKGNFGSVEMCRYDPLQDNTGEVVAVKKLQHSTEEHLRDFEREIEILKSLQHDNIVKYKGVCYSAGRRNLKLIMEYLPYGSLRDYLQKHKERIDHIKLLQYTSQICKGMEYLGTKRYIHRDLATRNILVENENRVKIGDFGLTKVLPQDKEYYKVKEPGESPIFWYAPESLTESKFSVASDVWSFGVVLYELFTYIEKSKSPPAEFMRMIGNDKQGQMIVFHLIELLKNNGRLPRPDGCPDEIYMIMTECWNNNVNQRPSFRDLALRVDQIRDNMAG
Active and inactive are the calls of the source. Cut-off read from the data, not from the text of the source: active = IC50 below about 9 µM; inactive = the rest.
measured metric: IC50

molecule	measured on	measured metric	assay result
CC(C)[C@@H](CO)Nc1nc(Nc2cccc(Cl)c2)c2ncn(C(C)C)c2n1	UniProtKB O60674	IC50	0.84 µM

Entry N#C/C(=C\c1ccc(O)c(O)c1)C(=O)NCCCCc1ccccc1 has what IC50?
0.25 µM

Entry O=C(Oc1cccc2c(O)cccc12)c1ccccc1 has what IC50?
8.18 µM

Entry O=c1cnn([C@@H]2O[C@H](CO)[C@@H](O)[C@H]2O)c(=O)[nH]1 has what IC50?
> 40 µM (inactive)

Entry O=S(=O)(c1cnc(Cl)c(Cl)c1)N1CCc2ccccc21 has what IC50?
6.39 µM

Entry O=C(OCn1ncc(Cl)c(Cl)c1=O)c1ccccc1Cl has what IC50?
4.03 µM
